Entry source: paper PMC12221289

Target: Bta mt-EF-Tu (Bos taurus, UniProt P49410 44-452)
Protocol text: DRaCALA; GTP; DRaCALA of EF-Tu:GTP:Phe-tRNA ternary complexes, 2 ul spotted on nitrocellulose, n>=3; binding buffer, pH and temperature not in the material
Measure: Kd (nM)
One number for each entry, in nM.

Prompt line: Please report the recorded Kd for Phe-tRNAPhe (canonical) (structured_RNA, 3'-aminoacylated with Phe (flexizyme)) RNA: GCGGAUUUAGCUCAGUUGGGAGAGCGCCAGACUGAAGAUCUGGAGGUCCUGUGUUCGAUCCACAGAAUUCGCACCA .
Response line: 5.8
